Hey, just so you know, these numbers are from the supplement of paper PMC6555819.

- System: PPARg:RXRa 270nM:90nM, anti-RXR (NR concentration 270 nM, RXRa partner concentration 90 nM)
- ASSAY REMARKS: PBM binding z-score (relative to random genomic background probes); higher = stronger binding; sequences stand for … in GC…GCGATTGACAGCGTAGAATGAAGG
Binning of PBM binding z-score into classes: I (below 1), II (1 to below 4), III (4 or more)

Inquiry: Form: Item = AGTATTAGTTGACTTAGGGCAACCGATACGACGC ; Class = ?
Reply text: I

Inquiry: Class? Entry: ATCGAAAGGTCGACTAGGTGAGTATACACCGTTT
Reply text: II

Inquiry: Note: place this sequence into its band. Item: GGCACGAGGGCAAGTTGATAGCAGAGTTTGATGG
Reply text: I

Inquiry: Lab note: which band did TCATCTAGGTAAAAGGTGAAAGTCGGTGTGGTAA land in?
Reply text: III

Inquiry: Form field 'band' for TCATATACGTAAAAGGTGAAAGTCGGTGTGGTAA
Reply text: II

Inquiry: Given AGAATCAGGTTAAGATCAGGGAAACAGAATACAT , name the class its PBM binding z-score places it in.
Reply text: II

Inquiry: Which of the defined bands does the recorded PBM binding z-score of TCTAGTTGGTCAAAGGTCACCCACTCGAAATGCG sit within?
Reply text: III

Inquiry: Which band does CCGACTGGGGCAAGGTTACCAGAACGCACAGCCA fall in?
Reply text: II

Inquiry: Into which bin does this sequence go? ACTAGCAGGCCAAGTTTGGGTTACTCAAACAAAG
Reply text: I

Inquiry: Sort into band: ACTAGTTGGTCAGCTAAGGTCACACACAATTCGG
Reply text: II

Inquiry: Consider GCATATAGGTAATACACGGTGAAAGTCCGATTGT . To which PBM binding z-score class does it belong?
Reply text: I

Inquiry: For the record ACTAGCAGGCCAAGCGTCACTCAAGATTAGTCCG , report the class its PBM binding z-score corresponds to.
Reply text: II

Inquiry: Into which bin does this sequence go? AGTCAAAGTTCACTGGGTAACGTAAGATTCAGCT
Reply text: III

Inquiry: Category of TCTCCGAGGACACGAAAGGTCAGAGCTCGACATC :
Reply text: II

---

- Tested on: PPARg:RXRa IVT, anti-PPARg (NR concentration 270 nM, RXRa partner concentration 90 nM)
- ASSAY REMARKS: PBM binding z-score (relative to random genomic background probes); higher = stronger binding; sequences stand for … in GC…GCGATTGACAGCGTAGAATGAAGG
Assignment: determine reported PBM binding z-score for the given sequences.

Inquiry: What does the data say about its PBM binding z-score? Entry: GCTGCTAGGTCAGGTTAGTCAGCTAACGGGTACG
Reply text: 2.42

Inquiry: Quick one: PBM binding z-score of CCGACTGGGGCAAAGATTACCATACTCAGTACGA ?
Reply text: 3.1

Inquiry: // lookup PBM binding z-score for TCTTGTAGATCTGCAGGTTAAGAAAGCTGGCCAA
Reply text: -0.0995

Inquiry: Returns the measured PBM binding z-score for the input sequence. Input: TAGCCTGGGTCAGATCGGGCCAGTATACGCTATA
Reply text: 0.885

Inquiry: Please give the measured PBM binding z-score for this sequence: AGTCAAAGTGCAGGACGAGGTAACGTAAAGCACG
Reply text: 0.274

Inquiry: Look up PBM binding z-score: CGTCCAAGGTCAGTAGGTCAGTGAAAGCGACGTG
Reply text: 6.09

Inquiry: Name the reported PBM binding z-score value associated with the sequence ATCGATAGGTCGAGGTGAGTATAGAGAAAGGGAA
Reply text: 1.03

Inquiry: For the sequence shown here, CGAACTAGGTCATTGACAGCACAGTGAATAGTAA , give the reported PBM binding z-score.
Reply text: 8.09

Inquiry: Can you look up the measured PBM binding z-score of TCATATAGGTAAAAGGTGAAAGGCGGTGTGGTAA for me?
Reply text: 5.21

Inquiry: Entry under review: CTTGCTAGGTCAATGGTCAGCTAAAGCAGCTCGC . Reported PBM binding z-score?
Reply text: 4.93

Inquiry: Look at this sequence and give its reported PBM binding z-score. CCAGACAGGTGATAGGTAACTCAGTCTGGTACGC
Reply text: 0.559

Inquiry: What measured PBM binding z-score goes with CGAACTAGGTCATCCAGGCCAGTGAATACATTGA ?
Reply text: 8.53

Inquiry: Value lookup for PBM binding z-score; key = AGTCAAAGTTCAGGACTAGGTAACGTAAAGCACG
Reply text: 3.09

Inquiry: Record request: PBM binding z-score value, item GTACCAAGGTGAATAGGTCGTTGTTGAGTAGGCG
Reply text: 2.74

Inquiry: So what does the record say about PBM binding z-score for TAGCCTCGGTCATGCGGGCCAGTATAGTGTCGGC ?
Reply text: 0.336

Inquiry: Please give the measured PBM binding z-score for this sequence: CCTACTGGGCCAAGGTCACTGATCAGTCAAAGCA
Reply text: 4.98

Inquiry: Item TCTTGTAGATCAACAGGAGGATAAGAAAGATCGA has what recorded PBM binding z-score?
Reply text: 0.232

Inquiry: I would be grateful if you could share the reported PBM binding z-score for GCGACTGGGGCAAAGCAGTTTACCATAAGGTTGG .
Reply text: 3.5

Inquiry: Endpoint output: PBM binding z-score of ATATGTTGGTTAGCTGGGGTCATTCAGACTAGGC . Value?
Reply text: 1.74

Inquiry: Which measured PBM binding z-score value corresponds to GATACAGGGTCAGCTAGAGGCCGGAGTATGGAAA ?
Reply text: 2.37

Inquiry: For the sequence shown here, CGTCCAAGGTCATAGGAGGTCAGTGATGACAGAT , give the reported PBM binding z-score.
Reply text: 4.38

Inquiry: Tell me the measured PBM binding z-score of CCTGCTAGGTCATGTTCAGCTAATCTACAGTATG , please.
Reply text: 2.94

Inquiry: Name the reported PBM binding z-score value associated with the sequence TCAGCCAGGTGAAGGTAACTCAGGTACGCAGTCG
Reply text: 1.33

Inquiry: Find the recorded PBM binding z-score belonging to CGTGCAAGGTCAAGGTCAGTGAAAGAGACTCGAA and report it.
Reply text: 4.59

Inquiry: Given ATATTTAGGTTATCGGGTCATTCAGTTTGCGCAT , state its recorded PBM binding z-score.
Reply text: 6.64

Inquiry: What value of measured PBM binding z-score is listed for TCTTGTAGATCAGCAGGTTAAGAATGCTGGCCAA ?
Reply text: 0.428

Inquiry: Give the measured PBM binding z-score of CGTCCAAGGTCAAGGTCTGTGAAAGAGACTCGAA .
Reply text: 3.88

---

Record form. Attribute: PBM binding z-score. Fill in for each entry.
- Tested on: PXR homodimer (NR concentration 270 nM)
- ASSAY REMARKS: PBM binding z-score (relative to random genomic background probes); higher = stronger binding; sequences stand for … in GC…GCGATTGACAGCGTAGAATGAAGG

Inquiry: For the sequence shown here, CATACAGGGTCAGCTAGGCCAGATTAGGGACGGC , give the reported PBM binding z-score.
Reply text: -0.138

Inquiry: Sample ATCGAAGGGTCGTGAGGTGAGTATACAGAAAGGC — what was its PBM binding z-score?
Reply text: 0.191

Inquiry: Bench note: what PBM binding z-score did AGAATGAGGTTAACATCAGGGAAACAGAATACAT show?
Reply text: 0.184

Inquiry: # get_value(readout='PBM binding z-score', item= CCGACTGGGGCAGAAAGATTACCATACCATCCGG )
Reply text: -0.227

Inquiry: May I ask what PBM binding z-score has been recorded for GCATATAGGAAATACAAGGTGAAAGTCCGATTGT ?
Reply text: 0.0769

Inquiry: # PBM binding z-score lookup, item CCTACTCGGCCAAAGGTCATTGATTCCAATGCTC
Reply text: 2.54

Inquiry: Request the reported PBM binding z-score associated with CGAACTAGGTCACAGAGGTCAAAGTCCGTGCGTA
Reply text: 13.2

Inquiry: If you can, please state the reported PBM binding z-score value of CAGCCTAGGACAGGGCCAGTATAGGAGGAACGTT .
Reply text: -0.323

Inquiry: PBM binding z-score lookup needed for TTGAGTAGGTTACCAATGGGGCATTCAGCTTTCT , thanks.
Reply text: -0.056

---

- Tested on: RARa homodimer (NR concentration 270 nM)
- ASSAY REMARKS: PBM binding z-score (relative to random genomic background probes); higher = stronger binding; sequences stand for … in GC…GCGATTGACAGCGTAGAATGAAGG
QUANTITY KIND: PBM binding z-score
Could you respond with only the numeric value?

Inquiry: # input sequence: AGAACGAGGGCAATGAGTCGATAGCACGGGTGGC ; wanted: its PBM binding z-score
Reply text: -0.378

Inquiry: I have this sequence here, CGTCAAAGTTTAAGGTAACGTAACAGAAAGCAGC , and I need its recorded PBM binding z-score.
Reply text: 0.46

Inquiry: Entry TAGCCTATGTCATTGGGCCAGTATAGTACGCATC has what PBM binding z-score?
Reply text: -0.0402
